Where do these numbers come from? They come from PubChem BioAssay AID1963963.

Measured pIC50, listed per entry for reference.
test system: 958667-338-R-J2-PDC tumor spheroids viability; experiment: Anticancer human tumor 958667-338-R-J2-PDC patient-derived colon adenocarcinoma cell line growth inhibition [PI3K]; conditions: curve of first compound; second compound 0.1 µM; spheroids with HUVEC and MSC;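 note: spheroids exposed to compounds for seven days before readout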
pIC50: −log10 of the molar value.

# pIC50 measured on 958667-338-R-J2-PDC tumor spheroids viability for item CC(=O)c1c(C)c2cnc(Nc3ccc(N4CCNCC4)cn3)nc2n(C2CCCC2)c1=O + CC(Nc1ncnc2nc[nH]c12)c1cc2cccc(Cl)c2c(=O)n1-c1ccccc1 = < 7.00

# pIC50 measured on 958667-338-R-J2-PDC tumor spheroids viability for item Cn1ncc(Cl)c1-c1cc(C(=O)NC(CN)Cc2cccc(F)c2)sc1Cl (stereo unspecified) + CC(Nc1ncnc2nc[nH]c12)c1cc2cccc(Cl)c2c(=O)n1-c1ccccc1 = 5.36

# pIC50 measured on 958667-338-R-J2-PDC tumor spheroids viability for item C[C@@H](NC(=O)c1ncnc(N)c1Cl)c1ncc(C(=O)Nc2cc(C(F)(F)F)c(Cl)cn2)s1 + CC(Nc1ncnc2nc[nH]c12)c1cc2cccc(Cl)c2c(=O)n1-c1ccccc1 = < 5.00

# pIC50 measured on 958667-338-R-J2-PDC tumor spheroids viability for item CC(=O)c1c(C)c2cnc(Nc3ccc(N4CCNCC4)cn3)nc2n(C2CCCC2)c1=O + Cc1nc(NC(=O)N2CCCC2C(N)=O)sc1-c1ccnc(C(C)(C)C(F)(F)F)c1 = < 7.00

# pIC50 measured on 958667-338-R-J2-PDC tumor spheroids viability for item C=CC(=O)N1CCN(c2nc(=O)n(-c3c(C)ccnc3C(C)C)c3nc(-c4c(O)cccc4F)c(F)cc23)C(C)C1 (stereo unspecified) + COc1c(OCCCN2CCOCC2)ccc2c3n(c(=NC(=O)c4cnc(N)nc4)nc12)CCN3 = < 5.00

# pIC50 measured on 958667-338-R-J2-PDC tumor spheroids viability for item CC1(C)CCC(CN2CCN(c3ccc(C(=O)NS(=O)(=O)c4ccc(NCC5CCOCC5)c([N+](=O)[O-])c4)c(Oc4cnc5[nH]ccc5c4)c3)CC2)=C(c2ccc(Cl)cc2)C1 + CC(Nc1ccc2c(c1)OCCn1cc(N3C(=O)OCC3C(F)F)nc1-2)C(N)=O = 5.19
